Attribution: paper PMC10819458

assay: Lung-tissue pharmacokinetics of PG–OJ components in tumor-bearing mice (UPLC–MS/MS); format: in vivo, BALB/c nude male mice; conditions: male, BALB/c nude, mouse, po; lung tissue, A549 tumor-bearing mice, intragastric PG–OJ extract 10.2 g/kg (6.8 g/kg elsewhere in the source), mean ± SD, n = 6; read-out: MRT(0–t) (converted)
Quantity name: MRT last
Answer by giving the amount and then stating its unit.

Give the measured MRT last of CC(C)=CCC[C@](C)(O[C@@H]1O[C@H](CO)[C@@H](O)[C@H](O)[C@H]1O)[C@H]1CC[C@]2(C)[C@@H]1[C@H](O)C[C@@H]1[C@@]3(C)CC[C@H](O[C@@H]4O[C@H](CO)[C@@H](O)[C@H](O)[C@H]4O[C@@H]4O[C@H](CO)[C@@H](O)[C@H](O)[C@H]4O)C(C)(C)[C@@H]3CC[C@]12C [Ginsenoside Rd] . 11.1 h

* * *

Task for the reader: assign each of the following molecules its reported AUC(0–∞).
assay: Lung-tissue pharmacokinetics of PG–OJ components in tumor-bearing mice (UPLC–MS/MS); format: in vivo, BALB/c nude male mice; conditions: lung tissue, A549 tumor-bearing mice, intragastric PG–OJ extract 10.2 g/kg (6.8 g/kg elsewhere in the source), mean ± SD, n = 6

Give the measured AUC(0–∞) of CC(C)=CCC[C@](C)(O[C@@H]1O[C@H](CO)[C@@H](O)[C@H](O)[C@H]1O)[C@H]1CC[C@]2(C)[C@@H]1[C@H](O)C[C@@H]1[C@@]3(C)CC[C@H](O[C@@H]4O[C@H](CO)[C@@H](O)[C@H](O)[C@H]4O[C@@H]4O[C@H](CO)[C@@H](O)[C@H](O)[C@H]4O)C(C)(C)[C@@H]3CC[C@]12C [Ginsenoside Rd] . 56,296.57 ± 6663.99 ng/g·min

Same question for CC(C)=CCC[C@](C)(O[C@@H]1O[C@H](CO)[C@@H](O)[C@H](O)[C@H]1O)[C@H]1CC[C@]2(C)[C@@H]1[C@H](O)C[C@@H]1[C@@]3(C)CC[C@H](O)C(C)(C)[C@@H]3[C@@H](O[C@@H]3O[C@H](CO)[C@@H](O)[C@H](O)[C@H]3O[C@@H]3O[C@@H](C)[C@H](O)[C@@H](O)[C@H]3O)C[C@]12C [Ginsenoside Re] please. 3933.20 ± 224.66 ng·min/g

Same question for CC(C)=CCC[C@](C)(O[C@@H]1O[C@H](CO)[C@@H](O)[C@H](O)[C@H]1O)[C@H]1CC[C@]2(C)[C@@H]1[C@H](O)C[C@@H]1[C@@]3(C)CC[C@H](O)C(C)(C)[C@@H]3[C@@H](O[C@@H]3O[C@H](CO)[C@@H](O)[C@H](O)[C@H]3O)C[C@]12C [Ginsenoside Rg1] please. 2345.90 ± 212.68 ng·min/g

Same question for CC(C)=CCC[C@](C)(O[C@@H]1O[C@H](CO[C@@H]2O[C@H](CO)[C@@H](O)[C@H](O)[C@H]2O)[C@@H](O)[C@H](O)[C@H]1O)[C@H]1CC[C@]2(C)[C@@H]1[C@H](O)C[C@@H]1[C@@]3(C)CC[C@H](O[C@@H]4O[C@H](CO)[C@@H](O)[C@H](O)[C@H]4O[C@@H]4O[C@H](CO)[C@@H](O)[C@H](O)[C@H]4O)C(C)(C)[C@@H]3CC[C@]12C [Ginsenoside Rb1] please. 283,948.70 ± 17,261.40 ng/g·min
